system: DU-145 prostate; assay: NCI tumour cell line growth inhibition, 48 h
measurementType: TGI

**Query** Dear colleague, I am looking for the recorded TGI of the following compound: COc1ccc(C(=O)/C=C/c2ccc(OCC#N)cc2)cc1OC
**Result** 23.8 µM

**Query** What value of measured TGI is listed for O=C(O)c1ccccc1-c1ccccc1C(=O)Nc1ccc2c(c1)Cc1ccccc1-2 ?
**Result** > 100 µM

**Query** State the recorded TGI for this entry: COc1cccc(C(C#N)NC23CC4CC(CC(C4)C2)C3)c1 (stereo unspecified)
**Result** > 100 µM

**Query** Param item = COc1ccc(/C=N/NS(=O)(=O)c2ccc(/C=C3\NC(=O)N(C)C3=O)cc2)cc1 ; retrieve measured TGI.
**Result** > 100 µM

**Query** // query TGI value for entry c1ccc2c(c1)ccc1nc3ccccn3c12
**Result** > 100 µM

**Query** Query (compound): CCn1c(SCC(=O)NNC(=S)Nc2ccc(Cl)cc2)nc2ccccc2c1=O ; field requested: TGI
**Result** > 100 µM
